tested on: ML290-mediated cGMP accumulation; assay: Effect of signalling pathway inhibitors on ML290-mediated cGMP accumulation in human primary vascular cells; assay type: cell-based; conditions: HUVSMCs; NF449 10 μM, NF023 10 μM, mSIRK 5 μM, L9A 5 μM, gallein 50 μM, Wortmannin 100 nM; 30 min
Measured ML290-mediated cGMP accumulation after inhibitor accompanies every entry in the list below.
Respond numerically; units are % and should not be typed.

Known results for molecules:
chemical structure	unit annotation	reported
O=C(Nc1cc(C(=O)Nc2ccc(S(=O)(=O)O)cc2S(=O)(=O)O)cc(C(=O)Nc2ccc(S(=O)(=O)O)cc2S(=O)(=O)O)c1)Nc1cc(C(=O)Nc2ccc(S(=O)(=O)O)cc2S(=O)(=O)O)cc(C(=O)Nc2ccc(S(=O)(=O)O)cc2S(=O)(=O)O)c1	%	18.8
COC[C@H]1OC(=O)c2coc3c2[C@@]1(C)C1=C(C3=O)[C@@H]2CCC(=O)[C@@]2(C)C[C@H]1OC(C)=O	%	14.3

Please turn your attention to the following entry.
Form field ML290-mediated cGMP accumulation after inhibitor, entry "O=C1OC2(c3ccccc31)c1ccc(O)c(O)c1Oc1c2ccc(O)c1O" : 14.3

====

Measured ML290-mediated cAMP accumulation after inhibitor accompanies every entry in the list below.
tested on: ML290-mediated cAMP accumulation; test: Effect of signalling pathway inhibitors on ML290-mediated cAMP accumulation in human primary vascular cells; format: cell-based; details: HUASMCs; NF449 10 μM, NF023 10 μM, mSIRK 5 μM, L9A 5 μM, gallein 50 μM, Wortmannin 100 nM; 30 min

Known results for compounds:
compound	target	reported
O=C(Nc1cc(C(=O)Nc2ccc(S(=O)(=O)O)cc2S(=O)(=O)O)cc(C(=O)Nc2ccc(S(=O)(=O)O)cc2S(=O)(=O)O)c1)Nc1cc(C(=O)Nc2ccc(S(=O)(=O)O)cc2S(=O)(=O)O)cc(C(=O)Nc2ccc(S(=O)(=O)O)cc2S(=O)(=O)O)c1 [NF449]	ML290-mediated cAMP accumulation	6.0 ± 7.3 % response to 50 μM forskolin
O=C1OC2(c3ccccc31)c1ccc(O)c(O)c1Oc1c2ccc(O)c1O [gallein]	ML290-mediated cAMP accumulation	5.2 ± 1.4 % response to 50 μM forskolin

Please turn your attention to the following entry.
Form field ML290-mediated cAMP accumulation after inhibitor, entry COC[C@H]1OC(=O)c2coc3c2[C@@]1(C)C1=C(C3=O)[C@@H]2CCC(=O)[C@@]2(C)C[C@H]1OC(C)=O [Wortmannin] : 7.2 ± 2.2 % response to 50 μM forskolin

====

test system: ML290-mediated cGMP accumulation; experiment: Effect of signalling pathway inhibitors on ML290-mediated cGMP accumulation in human primary vascular cells; format: cell-based; settings: HUASMCs; NF449 10 μM, NF023 10 μM, mSIRK 5 μM, L9A 5 μM, gallein 50 μM, Wortmannin 100 nM; 30 min
recorded metric: ML290-mediated cGMP accumulation after inhibitor (%)
Respond numerically; units are % and should not be typed.

Form field ML290-mediated cGMP accumulation after inhibitor, entry "COC[C@H]1OC(=O)c2coc3c2[C@@]1(C)C1=C(C3=O)[C@@H]2CCC(=O)[C@@]2(C)C[C@H]1OC(C)=O" : 21.8

Form field ML290-mediated cGMP accumulation after inhibitor, entry "O=C(Nc1cc(C(=O)Nc2ccc(S(=O)(=O)O)cc2S(=O)(=O)O)cc(C(=O)Nc2ccc(S(=O)(=O)O)cc2S(=O)(=O)O)c1)Nc1cc(C(=O)Nc2ccc(S(=O)(=O)O)cc2S(=O)(=O)O)cc(C(=O)Nc2ccc(S(=O)(=O)O)cc2S(=O)(=O)O)c1" : 24.3

Form field ML290-mediated cGMP accumulation after inhibitor, entry "O=C1OC2(c3ccccc31)c1ccc(O)c(O)c1Oc1c2ccc(O)c1O" : 15.6

Values were extracted from paper PMC5462828.
